# PROTOCOL_SUMMARY: qHTS for Inhibitors of human tyrosyl-DNA phosphodiesterase 1 (TDP1): qHTS in cells in absence of CPT; note: nearly all actives have a fitted effect of over 55% in size
# RUN_CONDITIONS: DT40 Tdp1-/- hTDP1 cells, no CPT, ATP luminescence, 48 h
About 64,000 (15%) of roughly 420,000 compounds were called active. Roughly 27% stayed inconclusive and do not appear here. Calls come from the whole dose curve; as a rule, active = well fitted inhibition curve with a large enough effect; inconclusive = small, poorly fitted or top-dose-only effect; inactive = flat fitted curve, though single readings scatter. Not all results are given here.
Outcome codes: active, inactive

Cc1[nH]c2c(C(=O)N3CCCC(CCC(=O)NCc4ccccc4F)C3)cccc2c1C (stereo not given) ... active
O=C(c1ccc(Cl)cc1)N1N=C(c2ccccn2)CC1(O)C(F)(F)F (stereo not given) ... active
Cc1nc2ccc(C(=O)N3CCSCC3)cc2s1 ... inactive
CC(=O)c1ccc(S(=O)(=O)NCCC(=O)N2CCN(c3ccccn3)CC2)cc1 ... inactive
CN1CCN(C2=NCCO2)CC1 ... inactive
COc1cccc(C(=O)N2CCCC(CCC(=O)NCc3ccc(F)c(F)c3)C2)c1 (stereo not given) ... inactive
CC(=O)C[C@H](O)CC(=O)[C@@H]1OC(=O)[C@@H](C)C/C=C\Cc2ccccc21 ... inactive
COc1cccc(CNC(=O)CCC2CCCN(C(=O)c3cc(C)[nH]n3)C2)c1 (stereo not given) ... inactive
Cc1cc(C)cc(NS(=O)(=O)c2ccc3[nH]cc(C(=O)N4CCCCC4)c(=O)c3c2)c1 ... inactive
O=C(Cc1ccccc1)N1N=C(c2ccncc2)CC1(O)C(F)(F)F (stereo not given) ... inactive
